Just for reference, ChEMBL document CHEMBL1127714 is where these values come from.

organism: Rattus norvegicus; experiment: Intrinsic activity determined in rat aorta; format: functional
Property name: IA (%)
Numbers only, in %.

Below, each entry is followed by its recorded IA result.
Compound	Property name	Measured value
[O-][n+]1ccccc1C1=CC(CF)(CF)Oc2ccc(C(F)(F)C(F)(F)F)cc21	IA	68.2
N#Cc1ccc2c(c1)C(n1ccccc1=O)=CC(CF)(CF)O2	IA	75.7
N#Cc1ccc2c(c1)[C@@H](N1CCCCC1=O)[C@H](O)C(CF)(CF)O2	IA	74.9
O=C1CCCCN1C1=CC(CF)(CF)Oc2ccc([N+](=O)[O-])cc21	IA	69.7
O=C1CCCN1C1=CC(CF)(CF)Oc2ccc(C(F)(F)C(F)(F)F)cc21	IA	68.6
O=C1CCCCN1[C@@H]1c2cc(C(F)(F)C(F)(F)F)ccc2OC(CF)(CF)[C@H]1O	IA	65.6
O=C1CCCN1[C@@H]1c2cc(C(F)(F)C(F)(F)F)ccc2OC(CF)(CF)[C@H]1O	IA	77.6
N#Cc1ccc2c(c1)C(N1CCCCC1=O)=CC(CF)(CF)O2	IA	68.7

Would you mind giving IA for every compound in the list below?
1. O=c1ccccn1[C@@H]1c2cc(C(F)(F)C(F)(F)F)ccc2OC(CF)(CF)[C@H]1O
2. CC1(C)Oc2ccc(C#N)cc2[C@@H](N2CCCC2=O)[C@@H]1O

Solution:
82.8
74.7

Would you mind giving IA for every compound in the list below?
1. O=C1CCCN1C1=CC(CF)(CF)Oc2ccc([N+](=O)[O-])cc21
2. N#Cc1ccc2c(c1)[C@@H](N1CCCC1=O)[C@H](O)C(CF)(CF)O2
3. O=C1CCCCN1C1=CC(CF)(CF)Oc2ccc(C(F)(F)C(F)(F)F)cc21
4. N#Cc1ccc2c(c1)C(N1CCCC1=O)=CC(CF)(CF)O2
5. O=C1CCCN1[C@@H]1c2cc([N+](=O)[O-])ccc2OC(CF)(CF)[C@H]1O
6. CC1(C)C=C(n2ccccc2=O)c2cc(C#N)ccc2O1
7. O=c1ccccn1C1=CC(CF)(CF)Oc2ccc(C(F)(F)C(F)(F)F)cc21

Solution:
[74.3, 78, 72, 74.4, 72.7, 70.2, 69.2]

Would you mind giving IA for every compound in the list below?
1. O=c1ccccn1C1=CC(CF)(CF)Oc2ccc([N+](=O)[O-])cc21
2. O=c1ccccn1[C@@H]1c2cc([N+](=O)[O-])ccc2OC(CF)(CF)[C@H]1O
3. N#Cc1ccc2c(c1)[C@@H](n1ccccc1=O)[C@H](O)C(CF)(CF)O2
4. CC(N/C(=N\C#N)Nc1ccncc1)C(C)(C)C (configuration not stated) [PINACIDIL ANHYDROUS]
5. O=C1CCCCN1[C@@H]1c2cc([N+](=O)[O-])ccc2OC(CF)(CF)[C@H]1O

Solution:
64.9
74.5
78.7
91.9
63.3

---

organism: Rattus norvegicus; experiment: Negative logarithm of the molar concentration required to relax rat aorta precontracted with 30 mM KCL by 50% of intrinsic activity; type: functional
Classify by EC50. Ranges: bin 1 (below 6 nM), bin 2 (6 nM to below 20 nM), bin 3 (20 nM or more)

Examples from the recorded data:
Chem smiles	Class assignment
N#Cc1ccc2c(c1)C(n1ccccc1=O)=CC(CF)(CF)O2	bin 3
N#Cc1ccc2c(c1)[C@@H](N1CCCC1=O)[C@H](O)C(CF)(CF)O2	bin 3
N#Cc1ccc2c(c1)[C@@H](n1ccccc1=O)[C@H](O)C(CF)(CF)O2	bin 3

Exercise: State the band of N#Cc1ccc2c(c1)C(N1CCCC1=O)=CC(CF)(CF)O2
Solution: bin 3

Exercise: State the band of [O-][n+]1ccccc1C1=CC(CF)(CF)Oc2ccc(C(F)(F)C(F)(F)F)cc21
Solution: bin 1

Exercise: State the band of O=C1CCCN1[C@@H]1c2cc([N+](=O)[O-])ccc2OC(CF)(CF)[C@H]1O
Solution: bin 3

Exercise: State the band of O=C1CCCN1C1=CC(CF)(CF)Oc2ccc([N+](=O)[O-])cc21
Solution: bin 2

Exercise: State the band of N#Cc1ccc2c(c1)C(N1CCCCC1=O)=CC(CF)(CF)O2
Solution: bin 3

---

organism: Rattus norvegicus; assay: Negative logarithm of the molar concentration required to relax rat aorta precontracted with 30 mM KCL by 50% of intrinsic activity; format: functional
One threshold, 10 nM, splits the recorded EC50 values: lower ones are y, equal or higher ones are n.

Chem smiles	Class assignment
O=C1CCCN1C1=CC(CF)(CF)Oc2ccc(C(F)(F)C(F)(F)F)cc21	y
O=c1ccccn1[C@@H]1c2cc([N+](=O)[O-])ccc2OC(CF)(CF)[C@H]1O	n
N#Cc1ccc2c(c1)[C@@H](N1CCCCC1=O)[C@H](O)C(CF)(CF)O2	y
CC1(C)C=C(n2ccccc2=O)c2cc(C#N)ccc2O1	n
O=C1CCCCN1[C@@H]1c2cc([N+](=O)[O-])ccc2OC(CF)(CF)[C@H]1O	y
O=C1CCCN1[C@@H]1c2cc(C(F)(F)C(F)(F)F)ccc2OC(CF)(CF)[C@H]1O	y
O=c1ccccn1C1=CC(CF)(CF)Oc2ccc(C(F)(F)C(F)(F)F)cc21	y
O=C1CCCCN1C1=CC(CF)(CF)Oc2ccc(C(F)(F)C(F)(F)F)cc21	y
O=C1CCCCN1C1=CC(CF)(CF)Oc2ccc([N+](=O)[O-])cc21	n
O=c1ccccn1[C@@H]1c2cc(C(F)(F)C(F)(F)F)ccc2OC(CF)(CF)[C@H]1O	n

Exercise: State whether 10 nM exceeds EC50 recorded for O=c1ccccn1C1=CC(CF)(CF)Oc2ccc([N+](=O)[O-])cc21 .
Solution: y

Exercise: State whether 10 nM exceeds EC50 recorded for O=C1CCCCN1[C@@H]1c2cc(C(F)(F)C(F)(F)F)ccc2OC(CF)(CF)[C@H]1O .
Solution: y
